targetDesc: T1, anti-internal structure antibody 5H10
T1 construct: also called internal antibody 5H10; internal structural antibody
T1 sequence (VH, as listed by the source, chain 1 of 2): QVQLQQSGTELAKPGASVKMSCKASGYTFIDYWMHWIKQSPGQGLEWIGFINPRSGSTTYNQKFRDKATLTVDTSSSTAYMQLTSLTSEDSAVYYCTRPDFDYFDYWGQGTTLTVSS
T1 sequence (VL, as listed by the source, chain 2 of 2): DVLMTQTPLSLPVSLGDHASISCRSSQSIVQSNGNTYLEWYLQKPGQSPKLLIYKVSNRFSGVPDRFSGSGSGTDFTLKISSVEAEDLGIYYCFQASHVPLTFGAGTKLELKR
assayOverview: competitive ELISA of 5H10, unlabelled peptide varied against the biotinylated internal structural peptide
parameter: binding result

binder="DSVPANTENEVEPVDARPAADRGLTTRPGSGLTNC (also called C-terminal cysteine-containing internal structural peptide; Immunogen 2 peptide) [Immunogen peptide]" parameter="binding result" result=binds
